- Tested on: NCI/ADR-RES ovarian
- procedure.details: NCI-60 one-dose screen, 48 h
- test.conditions: 10 µM
About 83,000 compounds went through this panel and 20% of them were active in at least one assay; those are over-represented in the sample as a whole. Active and inactive are the calls of the source. Rule for the calls: active = growth percent below 10; inactive = the rest.
Return exactly one item of class 1 for active, class 0 for inactive

molecule | target.desc | qualitative.label
Cc1nc2oc3ccccc3c(=O)c2cc1C(=O)NCc1ccccc1 | NCI/ADR-RES ovarian | class 0
Cc1ccc(Nc2nnc(-c3cc(-c4ccncc4)n(-c4ccccc4)n3)s2)cc1 | NCI/ADR-RES ovarian | class 0
COc1ccc(OC)c(/C=C/c2nc(SCc3ccccc3)n(-c3ccc(Cl)cc3)n2)c1 | NCI/ADR-RES ovarian | class 0
CCN1CCCC1CNC(=O)c1ncc(-c2ccc(C(F)(F)F)cc2)c(NC2CCCCCC2)n1 (configuration not stated) | NCI/ADR-RES ovarian | class 0
COc1ccc2c(c1)O/C(=C\c1ccc([N+](=O)[O-])o1)C2=O | NCI/ADR-RES ovarian | class 0

Prompt line: Please indicate how the test categorized c1ccc(C(NC2CC3CCC2C3)c2ccccc2)cc1 (configuration not stated) .
Response line: class 0

Prompt line: Consider next the molecule `COc1cc(Cl)cc(-c2nn(-c3cccc(NC(=O)Nc4ccc(Cl)c(C(F)(F)F)c4)c3)cc2-c2ccncc2)c1` in the same way.
Response line: class 1

Prompt line: Item: S=C1SCC(c2ccccc2)S1 (configuration not stated)
Response line: class 0

Prompt line: One more molecule: `COc1cc(Nc2ccnc(NCCCNc3ccnc4cc(Cl)ccc34)n2)cc(OC)c1`
Response line: class 0

Prompt line: Do the same for CCc1ccc2c(c1)N(CCO)C1=C(C(=O)OC1)C2c1ccccc1 (configuration not stated) please
Response line: class 0

Prompt line: Same again, this time with `O=C1/C(=C/c2ccc([N+](=O)[O-])o2)Oc2ccccc21`
Response line: class 0

Prompt line: Note, next up: O=C(NN1C(=O)CSC1c1ccc(Cl)cc1)c1cccnc1 (configuration not stated)
Response line: class 0

Prompt line: Cool, now `O=C(N/N=C/c1ccccc1O)C(O)(c1ccccc1)c1ccccc1`
Response line: class 0

Prompt line: And then `Cc1nc2c(c(=O)[nH]1)OCN(Cc1ccccc1)C2` , what is it?
Response line: class 0

Prompt line: What about `CN1CCC(CNc2cc(C3(C(=O)Nc4cc(C(=O)Nc5ccc(Cl)c(C(F)(F)F)c5)ccc4F)CC3)ncn2)CC1` ?
Response line: class 0

Prompt line: Thanks! And `CCN(CCCCCCN1CC(=O)N(CCCCCCN(CC)Cc2ccccc2OC)CC1=O)Cc1ccccc1OC` ?
Response line: class 0

Prompt line: Would you mind doing `CCOC(=O)N/N=C\C(C)=N\NC(=O)OCC` as well?
Response line: class 0

Prompt line: Note, next up: `O=C(O)CCCCSc1ncnc2nc[nH]c12`
Response line: class 0

Prompt line: Then this molecule: O=C1OCC2=C1C(c1cccc(Br)c1)c1cc3c(cc1N2CCO)CCC3 (configuration not stated)
Response line: class 1

Prompt line: Now consider `CN(C)CCOc1nc2ccccc2c2c1-c1ccc(Cl)cc1C2=O` .
Response line: class 1

Prompt line: Then this molecule: COc1ccc(C2=NN(C(=O)c3ccc(S(C)(=O)=O)cc3)C(c3ccc(OC)c(OC)c3)C2)c(OC)c1 (configuration not stated)
Response line: class 0

Prompt line: Please give the result for `C[C@@H]1C=C2C(=O)O[C@@H]3CC[C@H](C1)[C@]23O` too.
Response line: class 0

----------
- Tested on: HT29 colon
- procedure.details: NCI-60 one-dose screen, 48 h (100 = growth as untreated, 0 = no growth, -100 = all killed)
- test.conditions: 10 µM
- Procedure: Growth inhibition of the HT29 human tumor cell line is measured as a screen for anti-cancer activity. Cells are grown in 96 well plates and exposed to the test compound for 48 hours. Compounds are tested at a single concentration, which is 10^-5 M for most compounds. The reported endpoint is percent growth (GI% or GIPRCNT), where numbers from 0 - 100% represent growth inhibition, and numbers from -100% - 0 represent cell death. For example, a value of 40 represents 60% growth inhibition. […]
About 83,000 compounds went through this panel and 20% of them were active in at least one assay; those are over-represented in the sample as a whole. Calls of active or inactive are those of the source. How the source made its calls: active means growth percent below 10; inactive means the rest.
Measured growth of individual entries

Solved entries:
molecule | growth
CCN(CC)CCCC(C)Nc1nc(-c2ccc(OC)cc2)nc2cc(Cl)ccc12 (stereo not given) | 27.9% (inactive)
O=C(Nc1cccc(-n2cc(-c3ccncc3)c(-c3ccc(O)c(Cl)c3)n2)c1)c1cccc(C(F)(F)F)c1 | 31.8% (inactive)
Nc1ncn([C@@H]2O[C@H](CO)[C@@H](O)[C@H]2O)c(=O)n1 | 19.9% (inactive)
O=c1cc(-c2ccccc2)[nH]n1-c1nc2ccccc2[nH]1 | 87.1% (inactive)
Cc1ccc(CC#N)cc1C | 110% (inactive)
COc1cc(Cl)cc(-c2nn(-c3cccc(NC(=O)Nc4cc(C(F)(F)F)cc(C(F)(F)F)c4)c3)cc2-c2ccncc2)c1 | 3.93% (active)
COc1cc([C@@H]2c3cc4c(cc3C(Br)[C@H]3COC(=O)[C@H]23)OCO4)cc(OC)c1OC (stereo not given in full) | -10.4% (active)
S=C1SCC(c2ccccc2)S1 (stereo not given) | 103% (inactive)
CN1CCC(CNc2cc(C3(C(=O)Nc4cc(C(=O)Nc5ccc(Cl)c(C(F)(F)F)c5)ccc4F)CC3)ncn2)CC1 | -26.6% (active)

API: the following record is the query input.
Prompt line: Observed growth on HT29 colon for `Cc1cc(C)c2c(n1)sc1c(Nc3ccc(Cl)cc3)ncnc12` , please.
Response line: 27.5% (inactive)

----------
- System: OVCAR-3 ovarian
- procedure.details: NCI-60 one-dose screen, 48 h
- test.conditions: 10 µM
About 83,000 compounds went through this panel and 20% of them were active in at least one assay; those are over-represented in the sample as a whole. Calls of active or inactive are those of the source. The calls were made as follows: active = growth percent below 10; inactive = the rest.
API: response.call in true (1) = active, false (0) = inactive

Please review the following examples before continuing.
molecule | qualitative.label
CS(=O)(=O)Nc1ccc(Nc2c3ccccc3nc3cc([N+](=O)[O-])ccc23)cc1 | true (1)
O=C1/C(=C/c2ccc([N+](=O)[O-])s2)Oc2ccccc21 | true (1)
COc1ccc(C2CC(c3ccc(N(C)C)cc3)=NN2c2ccc(S(N)(=O)=O)cc2)cc1 (configuration not stated) | false (0)
O=C1OCC2=C1C(c1ccc(Cl)c(Cl)c1)c1cc3c(cc1N2CCO)OCCO3 (configuration not stated) | true (1)

Prompt line: How was `COc1ccc(-c2cc(/C=C/C(=O)c3cc(OC)c(OC)c(OC)c3)[nH]n2)cc1OC` classified in this test?
Response line: true (1)

Prompt line: Entry `COc1ccc(N=C2C(=Nc3ccc(OC)cc3)N(c3ccc(N(C)C)cc3)C(=S)N2c2ccc(OC)cc2)cc1` please
Response line: false (0)

Prompt line: Entry `Nc1c(C(=O)Nc2ccccc2Cl)sc2nc3c(cc12)C(=O)CCC3` please
Response line: false (0)

Prompt line: Try this molecule too: `O=S(=O)(Nc1ccccn1)c1ccc(N=Nc2ccc(O)c3ncccc23)cc1`
Response line: false (0)

Prompt line: What do we get for CCCCCCCC(C)NCCO (configuration not stated) ?
Response line: false (0)

Prompt line: Let us now turn to `COc1cc(Cl)cc(-c2nn(-c3cccc(NC(=O)Nc4ccc(Cl)c(Cl)c4)c3)cc2-c2ccncc2)c1`
Response line: true (1)

Prompt line: Same for `COc1cc2nc(Nc3cccc(NC(C)=O)c3)nc(N)c2cc1OC`
Response line: false (0)

Prompt line: // repeat for `CCCCCC(=O)c1ccc(OCCCN2CCN(C(=O)OCC)CC2)cc1` and report
Response line: false (0)

Prompt line: Continue with `CN(C)CCN=c1nc2c(c(N)n1-c1ccccc1)c(=S)n(-c1ccccc1)c(=S)n2-c1ccccc1`
Response line: true (1)

Prompt line: Okay, and `Cc1ccc(NC(=O)Nc2c(Cl)cccc2Cl)cn1` ?
Response line: false (0)

----------
This section presents compounds with their documented growth values.
- Test system: NCI/ADR-RES ovarian
- procedure.details: NCI-60 one-dose screen, 48 h (100 = growth as untreated, 0 = no growth, -100 = all killed)
- test.conditions: 10 µM
Compounds without any hit were thinned out: in the full panel of roughly 83,000, 20% have a hit.
Provide only the numeric value, understood in %.

Example entries and their recorded answers appear below.
compound | growth [%]
Cc1cc(N(CCCNc2ccnc3cc(Cl)ccc23)Cc2ccc3c(c2)OCO3)nc(N2CCOCC2)n1 | 46.9
CCOC(=O)c1ccoc1 | 108
COc1cccc(Cn2c(-c3nonc3N)nc3ccccc32)c1 | 14.4

Prompt line: # growth lookup, item `COc1cc2cc3c(nc2cc1OC)CCN3Cc1ccc(NC(=O)c2ccc(Cl)c(C(F)(F)F)c2)cc1`
Response line: 99.4

Prompt line: Now try `O=C1CC[C@@H]2CCCC[C@@H]2C1` .
Response line: 110

Prompt line: Next record, please: `CC/C(=C(/c1ccc(OCCN(C)C)cc1)c1ccc(OC(=O)CCCCCCCCC(=O)c2c(C)[nH]c(/C=C3\N=C(c4ccc[nH]4)C=C3OC)c2C)cc1)c1ccccc1`
Response line: 91.8
